Origin of the recorded values: PubChem BioAssay

Reported composite z-score by item:
System: PRMT1 (protein arginine N-methyltransferase 1)
Experiment: PRMT1 binders on small-molecule microarrays, primary screen, biochemical, small-molecule microarray, 635 nm fluorescence (AID 1088)
Settings: small-molecule microarray binding, higher = more signal

{"COMPOUND": "CC(C)NC(=O)[C@@H]1c2ccccc2C(=O)N(CC23CC4CC(CC(C4)C2)C3)[C@H]1c1ccc(CO)cc1", "composite z-score": 1.57}
{"COMPOUND": "CCOC(=O)[C@H](Cc1ccccc1)NC(=O)CCC1CC(OC(=O)NCc2ccc3c(c2)OCO3)CC2(CCCC(COC(=O)NCC3CCCCC3)O2)O1 (stereo not given in full)", "composite z-score": 1.55}
{"COMPOUND": "COc1ccc(-c2nc3c(c4c2C[C@H](C)OC4)CN(CCC(C)C)CC3)cc1", "composite z-score": 1.31}
{"COMPOUND": "CCCNC(=O)[C@@H]1c2ccccc2C(=O)N(c2ccc(C)cn2)[C@H]1c1ccc(CO)cc1", "composite z-score": 0.129}
{"COMPOUND": "CO[C@H]1O[C@H](CO)[C@@H](OC(=O)Nc2ccc(C#N)cc2)[C@H](OC(=O)c2cc3ccccc3[nH]2)[C@H]1OC(=O)c1cc2ccccc2[nH]1", "composite z-score": 1.3}
{"COMPOUND": "CCCC[C@@H](O)C1=C(C)C[C@H]2C(=O)N(Cc3ccccc3)C(=O)[C@H]2[C@H]1CO", "composite z-score": 0.18}
{"COMPOUND": "CCN1C(=O)[C@H]2[C@H]3[C@H](O)[C@H](O)CC(=NOCc4ccccc4)[C@@H]3CC[C@H]2C1=O", "composite z-score": 0.54}
{"COMPOUND": "CC1CC/C=C\\[C@H]2OC34C=CCN(Cn5nnc6ccccc65)C(=O)[C@H]3N(CCO)C(=O)[C@@H]4C2C(=O)O1 (stereo not given in full)", "composite z-score": 0.754}
{"COMPOUND": "[N-]=[N+]=Nc1ccccc1C[C@@]1(C(N)=O)N=C(c2ccc(OCCCO)cc2)O[C@@H]1c1ccccc1", "composite z-score": 0.683}
{"COMPOUND": "[N-]=[N+]=NCc1ccccc1C[C@]1(C(=O)NCc2ccccc2)N=C(c2ccc(OCCCO)cc2)O[C@H]1c1ccccc1N=[N+]=[N-]", "composite z-score": 1.26}
{"COMPOUND": "COC(=O)C1=CCC(c2cccc(Cl)c2)O1 (stereo not given)", "composite z-score": 0.0357}
{"COMPOUND": "CC(C)NC(=O)[C@@]1(c2ccc([N+](=O)[O-])cc2)CC(=O)N(CC23CC4CC(CC(C4)C2)C3)[C@@H]1c1ccc(CO)cc1I", "composite z-score": 1.52}
{"COMPOUND": "COc1ccc(COC(=O)NN=C2C[C@@H](O)[C@@H](O)[C@@H]3[C@@H]4C(=O)N(Cc5ccc6c(c5)OCO6)C(=O)[C@@H]4CC[C@@H]23)cc1", "composite z-score": -0.291}
{"COMPOUND": "O=C1[C@H]2[C@H]3[C@H](O)[C@H](O)CC(=NOCc4ccccc4)[C@H]3CC[C@H]2C(=O)N1c1ccc(F)cc1F", "composite z-score": -0.129}
{"COMPOUND": "C#CCCCON=C1C[C@@H](O)[C@@H](O)[C@@H]2[C@@H]3C(=O)N(Cc4ccccc4)C(=O)[C@@H]3CC[C@H]12", "composite z-score": 0.0491}
